# Study target: T1, mouse SLC34A2 (mouse, UniProt Q9DBP0 1-697)
# T1 construct: whole, on cells
# T1 sequence (looked up): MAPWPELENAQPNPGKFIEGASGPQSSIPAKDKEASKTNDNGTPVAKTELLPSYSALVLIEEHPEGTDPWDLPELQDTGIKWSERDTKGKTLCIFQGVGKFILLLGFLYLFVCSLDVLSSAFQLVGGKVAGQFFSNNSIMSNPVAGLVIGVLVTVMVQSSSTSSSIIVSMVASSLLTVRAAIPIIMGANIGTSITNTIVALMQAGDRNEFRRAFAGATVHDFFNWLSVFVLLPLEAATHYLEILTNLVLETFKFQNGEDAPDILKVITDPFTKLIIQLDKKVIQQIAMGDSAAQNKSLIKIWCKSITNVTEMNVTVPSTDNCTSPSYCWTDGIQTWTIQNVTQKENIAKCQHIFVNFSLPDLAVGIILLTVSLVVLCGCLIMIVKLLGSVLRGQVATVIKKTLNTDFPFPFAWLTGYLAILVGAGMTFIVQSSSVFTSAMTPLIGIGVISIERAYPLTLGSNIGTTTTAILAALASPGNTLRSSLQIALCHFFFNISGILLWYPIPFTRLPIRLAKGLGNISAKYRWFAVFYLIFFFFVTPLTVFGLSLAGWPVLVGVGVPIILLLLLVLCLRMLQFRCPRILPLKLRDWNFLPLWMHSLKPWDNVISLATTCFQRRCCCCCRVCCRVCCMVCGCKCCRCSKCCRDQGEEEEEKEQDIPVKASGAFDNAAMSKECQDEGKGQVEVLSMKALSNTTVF
# Experimental details: FACS, HEK293/Mouse SLC34A2 cells
Endpoint: pEC50
// scale note: pEC50 = -log10(conc_M); give the bare number

Q) Consider the binder 63A11D5B4.p1.z9 hIgG1 (antibody, V domains shown, humanized hIgG1) VH: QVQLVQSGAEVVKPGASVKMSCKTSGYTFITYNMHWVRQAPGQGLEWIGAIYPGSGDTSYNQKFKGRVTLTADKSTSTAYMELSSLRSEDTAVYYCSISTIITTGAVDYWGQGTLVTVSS VL: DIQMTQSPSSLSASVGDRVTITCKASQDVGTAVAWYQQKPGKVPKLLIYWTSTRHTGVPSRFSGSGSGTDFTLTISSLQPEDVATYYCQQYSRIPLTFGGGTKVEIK . State its measured pEC50.
A) 8.27

These measurements were taken from patent US20240301052A1.
